meta.source: patent US9610367B2

Assay Info: dissolution of ICG in chloroform with lipids without a positively charged region
Assay type: physicochemical
Run Conditions: lipid without positively charged region used instead of DOPE
Quantity Name: dissolution of ICG in chloroform

CCCCCCCCCCCCCCCCCC(=O)OCC(COC(=O)CCCCCCCCCCCCCCCCC)OC(=O)CCCCCCCCCCCCCCCCC
not dissolved
CCCCCCCCCCCCCCCCCC(=O)OCC [ethyl stearate]
not dissolved
CC(=O)O[C@H]1CC[C@@]2(C)C(=CC[C@H]3[C@@H]4CC[C@H]([C@H](C)CCCC(C)C)[C@@]4(C)CC[C@@H]32)C1 [cholesterol acetate]
not dissolved
CCCCCCCC/C=C\CCCCCCCC(=O)OCC(COC(=O)CCCCCCC/C=C\CCCCCCCC)OC(=O)CCCCCCC/C=C\CCCCCCCC
not dissolved
